Experiment: human hepatoma cell viability loss – ATP luminescence, cytotoxicity control for P. falciparum antimalarial project, primary screen (AID 2303)
Conditions: HepG2 viability, 24-48 h, at 10 µM
The source made the active and inactive calls.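 The calls were made as follows: active = inhibition above 50%; inactive = the rest.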
Write down one outcome, taken from active, inactive

- molecule: "COc1cc(Cc2cnc(N)nc2N)cc(OCCCN2C(=O)c3ccccc3C2=O)c1OC"
  classification: "inactive"
- molecule: "CN(C)C(CNC(=O)c1cc(-c2ccncc2)c(-c2ccc(NC(=O)Nc3cccc(Cl)c3)cc2)o1)c1ccccc1 (centres undefined)"
  classification: "inactive"
- molecule: "CC(=O)NCCCCC1NC2(C(=O)N(Cc3ccc(C(C)(C)C)cc3)c3ccccc32)C2C(=O)N(C3CCCCC3)C(=O)C12 (centres undefined)"
  classification: "inactive"

Answer briefly: the call reported for `O=c1cc(NCCCNCc2cc3ccccc3s2)[nH]c2ccccc12` in this assay. inactive

What is the recorded call for this molecule in the test? `CC(=O)Nc1ncc(C(=O)Nc2ccc(-c3cccc(-c4nc5ccc(F)cc5[nH]4)c3)cc2)s1` inactive

Can you look up the reported call for Cc1ccc(C2CC(c3cccs3)=NN2C(=O)c2ccc(Br)o2)cc1 (centres undefined) for me? inactive

How did this test come out for `Fc1ccc(CNc2ccc3ncc(-c4cccnc4)n3n2)cc1` ? inactive

Record lookup: outcome of this test for `N=C(N)c1ccc(OCc2cccc(COc3ccc(C(=N)N)cc3I)c2)c(I)c1` ? inactive
